All values here come from PubChem BioAssay (NCI).

Experiment: NCI Yeast Anticancer Drug Screen. Data for the sgs1 mgt1 strain (AID 161);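 further: 0% = growth of cultures given vehicle only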
Settings: S. cerevisiae sgs1 mgt1 strain, at 50.0 µM, hits give high values
Compounds without any hit were thinned out: in the full panel of roughly 79,000, 15% have a hit.
Measured Metric: growth inhibition (%)
Reply numerically in %, unit not repeated.

> print(dat)
                                molecule    measured.metric  value.reported
1  COc1ccc(C(=O)N/N=C/c2cccc3ccccc23)cc1  growth inhibition              13

Query :: Suppose we examine the molecule `O=C1NC(=O)C(=NC2C(=O)NC(=O)NC2=O)C(=O)N1` ; what growth inhibition value has been reported?
Result :: 31.3

Query :: Requested field: growth inhibition. Item: CCOC(=O)C1CCC2c3[nH]c4ccccc4c3CCN2C1=O (stereo not given)
Result :: -8.65

Query :: Please look up its growth inhibition: `O=C(Nc1cccc2c1[nH]c1c(-c3ccccc3)nccc12)c1ccccc1[N+](=O)[O-]`
Result :: 49.2

Query :: Name the recorded growth inhibition for N=C1N=Nc2nc(C(C(=O)c3cccc4ccccc34)c3nc4n(c3O)C(=N)N=N4)c(O)n21 (stereo not given) .
Result :: 14.2
